The reported numbers originate from ChEMBL document CHEMBL3988442.

I'd be grateful if you could share measured Percent Effect for these entries.
tested on: Wolbachia pipientis; test: Anti-Wolbachia Cell-Based Screen; assay type: functional; design: scale not given: in the data most compounds retested in dose-response had high values; conditions: 5 µM
About 13,000 (27%) of roughly 48,000 compounds showed an effect of 50% or more. Some of the results follow.
Answers are plain numbers, in %.

Compound	Reading
CCOC(=O)[C@H]1[C@@H](O)C(=O)N(C)C12CCN(C(=O)OC)CC2	97.39
CC(C)CC(=O)N1CCC2(CC1)[C@@H]1CN(C(=O)N(C)C)C[C@@H]1C(=O)N2C	-15.87
Cc1ccc(S(=O)(=O)NC(C)C#N)cc1Br (stereo unspecified)	-6.675
COC(=O)N1CCC2(CC1)N=C(CCC(C)C)NC2=O	-0.8032
O=C(NCCNc1ccccn1)N1CCSCC1	1.97

List Percent Effect for every entry below, keeping the order given.
1. CC(=O)N1C[C@@H]2C(=O)N(C)C3(CCN(C(=O)C(C)C)CC3)[C@@H]2C1
2. Cc1[nH]ncc1CCCNC(=O)N1CCOC(C)C1 (stereo unspecified)
3. CC1CCN(C(=O)Cc2ccc(S(=O)(=O)C(F)F)cc2)CC1
4. O=C(NCCNc1cnccn1)N1CC=C(c2ccccc2)CC1
5. CC(=O)N1CCCN(C(=O)NCCNc2cnccn2)CC1

1: -11.94; 2: -4.876; 3: 3.078; 4: -24.03; 5: 106.7

Provide one value: measured Percent Effect of O=C(NCCNc1cnccn1)N1CCc2ccccc2C1
3.9
